Value source: paper PMC10688098

- assay.remarks: Solubility at near-neutral pH
- Assay type: physicochemical
- applied.conditions: aqueous buffer
measured.quantity: solubility

Query: Look up and report measured solubility for this entry: CCOc1ccc(-c2snnc2-c2cc(Cl)c(O)cc2O)cc1
Response: ≤ 100 µM

----------
- assay.remarks: Intrinsic pKa and intrinsic solubility of ICPD47 from pKa shift (spectrophotometric and potentiometric titration, linked ionization-dissolution model)
- Assay type: physicochemical
- applied.conditions: 25 °C, aqueous buffer, kinetic from dmso stock, pKa shift model, aqueous universal buffer / titration with DMSO, read-out: Intrinsic solubility of the uncharged form
measured.quantity: solubility

Query: Look up and report measured solubility for this entry: CCOc1ccc(-c2snnc2-c2cc(Cl)c(O)cc2O)cc1
Response: ~75 µM
